Test: self-splicing fitness, log relative to wild type (ln ratio); higher = more splicing; Tetrahymena group I intron in knt gene, E. coli kanamycin selection, DiMSum; sequences stand for … in CUCUCU…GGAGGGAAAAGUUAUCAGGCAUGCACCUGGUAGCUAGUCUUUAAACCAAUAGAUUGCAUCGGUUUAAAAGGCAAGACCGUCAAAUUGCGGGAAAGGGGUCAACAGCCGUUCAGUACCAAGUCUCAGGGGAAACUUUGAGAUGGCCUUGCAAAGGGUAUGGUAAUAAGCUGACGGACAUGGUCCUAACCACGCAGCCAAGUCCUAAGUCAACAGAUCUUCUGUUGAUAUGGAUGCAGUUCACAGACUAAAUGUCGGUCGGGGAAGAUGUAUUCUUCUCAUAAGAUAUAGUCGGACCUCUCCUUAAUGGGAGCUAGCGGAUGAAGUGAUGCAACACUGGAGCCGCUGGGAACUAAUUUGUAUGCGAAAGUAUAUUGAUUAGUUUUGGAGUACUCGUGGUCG;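 note: selection with 25 µg/mL kanamycin versus none on LB agar overnight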
Settings: 30 °C
Label 0 if self-splicing fitness (ln) falls below -2; label 1 in every other case.

Look over these answered cases.
INSERT INTO results (macromolecule_sequence, group_label) VALUES
  ('AAAAAGCAAUAUUACGCUUU', 0),
  ('ACCCAGCAAUAUUACGUAGG', 1),
  ('AAGUAGCAAUAUUACGGACG', 0),
  ('CUACAGCAAUAUUACGGCUU', 0),
  ('GUGUAGCAAUAUUACGUCGC', 0);

Tell me whether self-splicing fitness (ln) is at least -2 here: `ACACAGCAAUAUUACGUGCG` 1

hey, is self-splicing fitness (ln) for this one >= -2? `UGUCAGCAAUAUUACGAACU` 1

Would you say `CGGGAGCAAUAUUACGGGUG` shows self-splicing fitness (ln) at minimum -2? 0

Does the reported self-splicing fitness (ln) for `GUAUAGCAAUAUUACGUUGA` fall at or above the -2 mark? 0

API: above_or_equal(metric=self-splicing fitness (ln), cutoff=-2) for item `UCUCAGCAAUAUUACGAUGU` 1

Check this sequence for self-splicing fitness (ln) at or above -2: `AAGAAGCAAUAUUACGGAUA` 1

Determine whether measured self-splicing fitness (ln) meets or exceeds -2 for `GCCGAGCAAUAUUACGGGCU` 0

Assess whether reported self-splicing fitness (ln) for `GGUCAGCAAUAUUACGAAGA` sits at -2 or higher. 1

Item `AGGAAGCAAUAUUACGGAAU` with self-splicing fitness (ln) of -2 or above? 0

Please indicate if the recorded self-splicing fitness (ln) for `CCUGAGCAAUAUUACGUUCC` meets or exceeds -2. 0

For this sequence, is measured self-splicing fitness (ln) -2 or higher? `CGCAAGCAAUAUUACGGAUA` 0

###

Experiment: self-splicing fitness, log relative to wild type (ln ratio); higher = more splicing; Tetrahymena group I intron in knt gene, E. coli kanamycin selection, DiMSum; sequences stand for … in CUCUCU…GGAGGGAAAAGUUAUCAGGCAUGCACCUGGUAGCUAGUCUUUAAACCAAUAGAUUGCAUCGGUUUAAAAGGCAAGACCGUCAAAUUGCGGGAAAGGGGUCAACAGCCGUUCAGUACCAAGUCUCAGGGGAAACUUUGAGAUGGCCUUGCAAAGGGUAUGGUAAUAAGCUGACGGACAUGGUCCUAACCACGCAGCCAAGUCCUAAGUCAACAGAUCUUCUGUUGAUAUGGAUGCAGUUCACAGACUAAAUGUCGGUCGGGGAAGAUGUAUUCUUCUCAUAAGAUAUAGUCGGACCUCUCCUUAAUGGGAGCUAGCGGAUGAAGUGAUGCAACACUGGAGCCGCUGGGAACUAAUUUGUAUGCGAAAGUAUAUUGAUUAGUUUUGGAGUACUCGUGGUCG
Conditions: 37 °C
Readings of self-splicing fitness (ln) for the listed sequences
Keep it simple and answer with nothing but the number.

These solved cases illustrate the format of a correct answer.
INSERT INTO results (macromolecule_sequence, test_value) VALUES
  ('AACAAGCAAUAUUACGUGGU', -1.57),
  ('AGUCAGCAAUAUUACGGUCU', -0.146);

Report self-splicing fitness (ln), nothing else, for this sequence: `GCCAAGCAAUAUUACGCUUU` -1.18

Return self-splicing fitness (ln) for the following sequence: `CGUAAGCAAUAUUACGUCCA` -1.25
